Reported Kd values are given for each entry in this list.
# TESTED TARGET: UniProt:P10980
# Sequence (P10980 whole entry): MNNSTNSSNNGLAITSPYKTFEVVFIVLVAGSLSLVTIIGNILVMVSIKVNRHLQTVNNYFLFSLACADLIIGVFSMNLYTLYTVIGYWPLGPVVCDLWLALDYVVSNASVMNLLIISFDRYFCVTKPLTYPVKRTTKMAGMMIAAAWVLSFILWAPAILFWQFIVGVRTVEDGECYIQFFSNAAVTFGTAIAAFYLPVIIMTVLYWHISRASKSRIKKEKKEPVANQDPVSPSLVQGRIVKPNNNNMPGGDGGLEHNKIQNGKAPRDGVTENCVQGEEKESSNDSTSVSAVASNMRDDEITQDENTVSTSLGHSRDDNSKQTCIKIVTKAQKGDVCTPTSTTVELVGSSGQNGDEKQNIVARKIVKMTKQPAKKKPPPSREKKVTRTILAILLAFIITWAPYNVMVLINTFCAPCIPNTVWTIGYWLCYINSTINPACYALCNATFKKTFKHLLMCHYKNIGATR
Respond numerically; units are µM and should not be typed.

Record excerpt, results attached:
molecule=CN1CCCC[C@@H]1CC=C1c2ccccc2Cc2ccccc21 tested_target=UniProt:P10980 numeric_readout=0.0145
molecule=CN1CCCC[C@H]1CC=C1c2ccccc2Cc2ccccc21 tested_target=UniProt:P10980 numeric_readout=0.035

Query: Please look up its Kd: CN1CCCCC1C/C=C/C1c2ccccc2Cc2ccccc21 (centres undefined)
Reply: 0.0226

Query: Please look up its Kd: C[C@@H]1OC(=O)[C@H]2C[C@H]3CCCC[C@@H]3[C@@H](/C=C/[C@H]3CCC[C@H](C)N3C)[C@@H]12 [HIMBACINE]
Reply: 0.00905
